Provenance of the data: PubChem BioAssay AID248

- System: L1210 leukemia ip in BDF1 mice, survival T/C
- procedureDetails: NCI In Vivo Anticancer Drug Screen. Data for tumor model L1210 Leukemia (intraperitoneal) in B6D2F1 (BDF1) mice
- details: endpoint: mean survival time; dose: 600.0 mg/kg/injection; schedule: Q01DX001 (ip); vehicle: saline
Toxic doses and inconclusive results are not listed. Cut-off read from the data, not from the text of the source: active = T/C of 150% or more; inactive = T/C below 125%.
Log the outcome using a class from active, inactive

Some solved entries appear below for comparison.
>>> df
                                   molecule  assignedclass
0                             CCCCCC(C)(C)O       inactive
1  Nc1nc(SSc2nc(N)nc3c2ncn3C2CC(O)C(CO)O2)c2ncn(C3CC(O)C(CO)O3)c2n1 (centres undefined)         active
2                                  Nc1nncs1       inactive

// query Record request — test call for FC(F)(F)c1cc(CN(CCCl)CCCl)cc(C(F)(F)F)c1
// result active

###

- Tested on: L1210 leukemia ip in BDF1 mice, survival T/C
- procedureDetails: NCI In Vivo Anticancer Drug Screen. Data for tumor model L1210 Leukemia (intraperitoneal) in B6D2F1 (BDF1) mice
- details: endpoint: mean survival time; dose: 200.0 mg/kg/injection; schedule: Q04DX003 (ip); vehicle: saline with Tween-80; higher = longer survival
Toxic doses and inconclusive results are not listed.
Here, each record is paired with measured T/C data.

Solved cases (10 shown):
                                   compound                        experimentaltarget            result
0  COc1ccc(OC)c(/C=C/C(=O)n2cnc3c(N)ncnc32)c1  L1210 leukemia ip in BDF1 mice, survival T/C   93 % of control
1               COC(=O)C1(C(=O)OC)CCC=CC1=O  L1210 leukemia ip in BDF1 mice, survival T/C  101 % of control
2  CC(CCC(C)(C)O)C1CCC2C3C(O)CC4CCCCC4(C)C3CC(O)C12C (stereo unspecified)  L1210 leukemia ip in BDF1 mice, survival T/C   91 % of control
3                CC1(C)CCC2(CC1)CC(=O)OC2=O  L1210 leukemia ip in BDF1 mice, survival T/C   97 % of control
4  O=C(Nc1ccccc1[N+](=O)[O-])Oc1ccc(-c2ccccc2)cc1  L1210 leukemia ip in BDF1 mice, survival T/C   95 % of control
5  O=C(Nc1ccc([N+](=O)[O-])cc1)Nc1ccc([N+](=O)[O-])cc1  L1210 leukemia ip in BDF1 mice, survival T/C  102 % of control
6  O=c1c2ccccc2sc2c1ccc1c2ccc2c(=O)c3ccccc3sc21  L1210 leukemia ip in BDF1 mice, survival T/C   87 % of control
7                    O=c1c2ccccc2oc2ccccc12  L1210 leukemia ip in BDF1 mice, survival T/C   97 % of control
8  c1ccc(C(c2ccccc2)[Si](c2ccccc2)(C(c2ccccc2)c2ccccc2)C(c2ccccc2)c2ccccc2)cc1  L1210 leukemia ip in BDF1 mice, survival T/C  100 % of control
9             CCOC(=O)/C(N=O)=C(/O)c1ccccc1  L1210 leukemia ip in BDF1 mice, survival T/C   94 % of control

// query Bench note: what T/C did CCOC(=O)C(CCC1=NC(C)(C)CC(C)O1)C(=O)OCC (stereo unspecified) show?
// result 101 % of control
